assay_remarks: physchem
assay_conditions: pH 7
observable: pKa

compound_smiles=c1ccc(CN2CCC(Nc3nc(N4CCN(c5ccccn5)CC4)nc4cc5c(cc34)OCO5)CC2)cc1 quantitative_readout=8.08
compound_smiles=c1ccc(CN2CCC(Nc3nc(N4CCN(c5ccccn5)CC4)nc4ccoc34)CC2)cc1 quantitative_readout=5.77
compound_smiles=CN1CCN(c2nc(NC3CCN(Cc4ccccc4)CC3)c3ccccc3n2)CC1 quantitative_readout=5.53
compound_smiles=COc1cc2nc(N3CCN(c4ccccn4)CC3)nc(NC3CCN(Cc4ccccc4)CC3)c2cc1OC quantitative_readout=8.1
compound_smiles=CN1CCN(c2nc(NC3CCN(Cc4ccccc4)CC3)c3occc3n2)CC1 quantitative_readout=4.66
compound_smiles=c1ccc(CN2CCC(Nc3nc(N4CCN(c5ccccn5)CC4)nc4ccccc34)CC2)cc1 quantitative_readout=8.03
compound_smiles=c1ccc(CN2CCC(Nc3nc(N4CCCCC4)nc4ccccc34)CC2)cc1 quantitative_readout=7.4
compound_smiles=CN1CCCN(c2nc(NC3CCN(Cc4ccccc4)CC3)c3ccccc3n2)CC1 quantitative_readout=8.06
compound_smiles=COc1cc2nc(N3CCN(C)CC3)nc(NC3CCN(Cc4ccccc4)CC3)c2cc1OC quantitative_readout=5.6
compound_smiles=CN1CCCN(c2nc(NC3CCN(Cc4ccccc4)CC3)c3occc3n2)CC1 quantitative_readout=4.57
compound_smiles=CN1CCCN(c2nc(NC3CCN(Cc4ccccc4)CC3)c3ccsc3n2)CC1 quantitative_readout=3.28
